# METHOD DESCRIPTION: Plasma pharmacokinetics of SU5416 and metabolites in Phase I patients (HPLC UV)
# Format: in vivo, human
# STATED CONDITIONS: human, in vivo, iv, 48 mg m^−2, individual patients, twice weekly i.v. infusion, dose 48 mg m^−2, cycle 1inj2; read-out: Vz (observed)
METRIC: Vd (L)
Write the answer as a number in L, unit excluded.

Record request: Vd value, item Cc1cc(C)c(/C=C2\C(=O)Nc3ccccc32)[nH]1 [SU5416]
142

* * *

# METHOD DESCRIPTION: Plasma pharmacokinetics of SU5416 and metabolites in Phase I patients (HPLC UV)
# Type: in vivo, human
# STATED CONDITIONS: human, plasma, iv, 65 mg m^−2, individual patients, twice weekly i.v. infusion, dose 65 mg m^−2, cycle 1inj2; read-out: CL (observed) (converted)
METRIC: clearance

Field request: clearance | item: `Cc1cc(C)c(/C=C2\C(=O)Nc3ccccc32)[nH]1`
1070 mL/min

Values from paper PMC2361651
